The origin of these recorded values is ChEMBL document CHEMBL4823311.

- procedure-details: Passive permeability of the compound across artificial membrane by AMP assay
- Assay type: ADME
- condition-parameters: PAMPA; read-out: permeability
Provide the reported Papp of each item.

Here are 2 compounds together with their reported answers.
[[record]]
structure_as_smiles = "Cc1cc2c(C3=CCOCC3)cnc(NC3CCN(CCCN)CC3)c2[nH]c1=O"
data_value = "< 0.5 ×10⁻⁶ cm/s"

[[record]]
structure_as_smiles = "Cc1cc2c(C3CCOCC3)cnc(NC3CCN(CCCN)CC3)c2[nH]c1=O"
data_value = "< 1 ×10⁻⁶ cm/s"


Recorded result, Cc1cc2c(C3=CCOCC3)cnc(NC3CCN(CCC(N)=O)CC3)c2[nH]c1=O , Papp: < 0.7 ×10⁻⁶ cm/s
